Where do the numbers come from? From paper PMC10989010.

- Test system: IL-8
- method: U937 cell-based anti-inflammatory assay for influenza virus infection, IL-8 production (AlphaLISA)
- Parameters: species or system human
- test_parameters: Homo sapiens, U-937, 72 h, read-out: IC50 IL-8
Counter-ions that a name gives are not always drawn.
value_type: pIC50
Hey, just a heads up that pIC50 is the negative log base 10 of the concentration in molar.

# pIC50 of N#CC[C@H](C1CCCC1)n1cc(-c2ncnc3[nH]ccc23)cn1 [Ruxolitinib] = 6.92

# pIC50 of N#CC[C@@H](C1CCCC1)n1cc(-c2ncnc3[nH]ccc23)cn1 [S-Ruxolitinib] = 7.52

# pIC50 of CNS(=O)(=O)C[C@H]1CC[C@H](N(C)c2ncnc3[nH]ccc23)CC1 [Oclacitinib maleate] = 7.30

# pIC50 of O=C(Nc1ccc(-c2ccnc(Nc3ccc(N4CCOCC4)cc3)n2)cc1)C1CCCN1 (stereo not drawn) [XL019] = 6.29
